- assay-system: Adenosine receptors; A1 & A3 (Homo sapiens) (UniProt P30542+P0DMS8)
- Sequence (P0DMS8 whole entry, looked up): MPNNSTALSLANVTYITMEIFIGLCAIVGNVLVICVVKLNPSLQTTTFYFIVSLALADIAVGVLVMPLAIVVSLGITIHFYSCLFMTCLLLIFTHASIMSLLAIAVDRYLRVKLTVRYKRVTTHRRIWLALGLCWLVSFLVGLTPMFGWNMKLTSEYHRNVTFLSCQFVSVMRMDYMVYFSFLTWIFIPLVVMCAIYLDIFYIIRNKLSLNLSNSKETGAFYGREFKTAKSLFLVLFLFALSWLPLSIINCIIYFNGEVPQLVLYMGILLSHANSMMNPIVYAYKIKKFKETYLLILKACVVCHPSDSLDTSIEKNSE
- Sequence (P30542 whole entry, looked up): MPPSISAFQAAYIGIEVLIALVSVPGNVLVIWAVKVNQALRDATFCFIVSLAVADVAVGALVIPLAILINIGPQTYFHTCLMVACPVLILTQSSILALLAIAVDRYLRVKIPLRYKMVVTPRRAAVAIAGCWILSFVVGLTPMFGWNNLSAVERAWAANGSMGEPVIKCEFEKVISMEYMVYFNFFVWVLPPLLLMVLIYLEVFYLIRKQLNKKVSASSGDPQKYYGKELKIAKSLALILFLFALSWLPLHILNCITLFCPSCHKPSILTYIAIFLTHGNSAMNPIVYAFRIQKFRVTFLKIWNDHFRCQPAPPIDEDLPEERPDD
- measurement-notes: Ratio of binding affinity for human adenosine A1 and A3 receptors
- Format: protein assay
# key: entry, value: Ratio
Kindly provide the number alone.

CNC(=O)[C@H]1O[C@@H](n2cnc3c(NCc4cccc(I)c4)ncnc32)[C@H](O)[C@@H]1N    64

Any idea what Ratio came out for CNC(=O)[C@H]1O[C@@H](n2cnc3c(NC)ncnc32)[C@H](O)[C@@H]1N on Adenosine receptors; A1 & A3 (Homo sapiens) (UniProt P30542+P0DMS8)?
194

Find Ratio (Adenosine receptors; A1 & A3 (Homo sapiens) (UniProt P30542+P0DMS8)) for the entry CNC(=O)[C@H]1O[C@@H](n2cnc3c(NCc4cc(Cl)ccc4OCc4cc(C)no4)ncnc32)[C@H](O)[C@@H]1O
42

# query: Ratio | item CNC(=O)[C@H]1O[C@@H](n2cnc3c(NC)ncnc32)[C@H](O)[C@@H]1O | system: Adenosine receptors; A1 & A3 (Homo sapiens) (UniProt P30542+P0DMS8)
13

====

- measurement-notes: Tested for pKa value of compound
- Type: physicochemical
property: pKa
I only need the number, thanks.

What measured pKa goes with CNC(=O)[C@H]1O[C@@H](n2cnc3c(NCc4cc(Cl)ccc4OCc4cc(C)no4)ncnc32)[C@H](O)[C@@H]1N ?
6.25
